Values compiled from patent EP4700018A1.

experiment notes: In vivo pharmacokinetics in rats, single intravenous injection or oral gavage
assay context: male, SD, plasma; Rat, intravenous, single dose 2 mg/kg or 1 mg/kg (figure not given); read-out: Vss
Listed below: Vd values for each entry.
Numbers only here, please. The scale is L/kg.

// worked examples, Vd included
compound | Vd / L/kg
Cc1nc(N2CCCC(F)(F)CC2)c(C(=O)Nc2ccc(F)c(C(N)=NO)c2)cc1Cl [Compound I-1] | 0.638
COc1c([C@H]2[C@H](C(=O)Nc3ccnc(C(N)=O)c3)O[C@@](C)(C(F)(F)F)[C@H]2C)ccc(F)c1F [VX-548, reference compound] | 0.92

Now turn to the next compound.
Vd measured on NC(=NO)c1cc(NC(=O)c2cc(Cl)c(C(F)(F)F)cc2N2CCCC(F)(F)CC2)ccc1F [Compound I-33] = 1.16
